target: amino acid substituted PPO enzyme L397N (Amaranthus tuberculatus, UniProt Q0NZW9, L397N); assay: biochemical
pIC50: −log10 of the molar value.
measuredQuantity: pIC50

[
  {
    "smilesRecord": "C#CCN1C(=O)C(F)(F)Oc2cc(F)c(-n3c(=O)n(C)c(=S)n(C)c3=O)cc21",
    "readoutNumber": 9.63
  }
]

----------
molecular target: amino acid substituted PPO enzyme F420M (Amaranthus tuberculatus, UniProt Q0NZW9, F420M); test: biochemical
pIC50: −log10 of the molar value.

[
  {
    "smilesRecord": "C#CCN1C(=O)C(F)(F)Oc2cc(F)c(-n3c(=O)n(C)c(=S)n(C)c3=O)cc21",
    "tgt": "amino acid substituted PPO enzyme F420M (Amaranthus tuberculatus, UniProt Q0NZW9, F420M)",
    "pIC50": 9.56
  }
]
